protocolDetails: Microsomal stability, human liver microsomes (predicted hepatic clearance)
runParameters: predicted from in vitro microsomal stability data
Think of 8 mL/min/kg as a floor: if Predicted Hepatic Clearance (Pred. Cl.) stands on it or above, it is Yes; beneath it, No.

[Q] Reported Predicted Hepatic Clearance (Pred. Cl.) at or above 8 mL/min/kg? `CC(C)(Cn1c(Cc2ccc(-c3cccc(OCc4ccc(C#N)cc4F)n3)c(F)c2)nc2ccc(C(=O)O)cc21)C(F)F`
[A] Yes

[Q] Reported Predicted Hepatic Clearance (Pred. Cl.) at or above 8 mL/min/kg? `COCCn1c(Cc2ccc(-c3cccc(OCc4ccc(F)cc4)n3)cc2F)nc2ccc(C(=O)O)cc21`
[A] No

[Q] Reported Predicted Hepatic Clearance (Pred. Cl.) at or above 8 mL/min/kg? `COCCn1c(Cc2cc(F)c(-c3cccc(OCc4ccc(-c5ccn(C)n5)cc4F)n3)cc2F)nc2ccc(C(=O)O)cc21`
[A] No

[Q] Reported Predicted Hepatic Clearance (Pred. Cl.) at or above 8 mL/min/kg? `COC[C@H](C)n1c(Cc2cc(F)c(-c3cccc(OCc4ccc(C#N)cc4F)n3)cc2F)nc2ccc(C(=O)O)cc21`
[A] No

[Q] Reported Predicted Hepatic Clearance (Pred. Cl.) at or above 8 mL/min/kg? `NC(=O)c1ccc(COc2cccc(-c3cc(F)c(Cc4nc5ccc(C(=O)O)cc5n4C[C@@H]4CCO4)cc3F)n2)c(OC(F)F)n1`
[A] No

[Q] Reported Predicted Hepatic Clearance (Pred. Cl.) at or above 8 mL/min/kg? `N#Cc1ccc(COc2ccc(F)c(-c3cc(F)c(Cc4nc5ccc(C(=O)O)cc5n4CCOC4CC4)cc3F)n2)c(F)c1`
[A] No

[Q] Reported Predicted Hepatic Clearance (Pred. Cl.) at or above 8 mL/min/kg? CC1(C)CC(Cn2c(Cc3ccc(-c4cccc(OCc5ccc(C#N)cc5F)n4)cc3F)nc3ccc(C(=O)O)cc32)O1 (single isomer, unassigned) [Example 904]
[A] Yes

[Q] Reported Predicted Hepatic Clearance (Pred. Cl.) at or above 8 mL/min/kg? `N#Cc1ccc(COc2cccc(-c3cc(F)c(Cc4nc5ccc(C(=O)O)cc5n4CCOc4ccccc4)cc3F)n2)c(F)c1`
[A] No

[Q] Reported Predicted Hepatic Clearance (Pred. Cl.) at or above 8 mL/min/kg? `CC(C)(C)OCCn1c(Cc2cc(F)c(-c3cccc(OCc4ccc(C#N)cc4F)n3)cc2F)nc2ccc(C(=O)O)cc21`
[A] No

[Q] Reported Predicted Hepatic Clearance (Pred. Cl.) at or above 8 mL/min/kg? `CC(C)(Cn1c(Cc2ccc(-c3cccc(OCc4ccc(C#N)cc4F)n3)cc2F)nc2ccc(C(=O)NS(=O)(=O)C3CC3)cc21)C(F)F`
[A] No

[Q] Reported Predicted Hepatic Clearance (Pred. Cl.) at or above 8 mL/min/kg? `COCCn1c(Cc2cc(F)c(-c3cccc(OCc4ccc(C)cc4F)n3)cc2F)nc2ccc(C(=O)O)cc21`
[A] No

[Q] Reported Predicted Hepatic Clearance (Pred. Cl.) at or above 8 mL/min/kg? `COCCn1c(Cc2cc(F)c(-c3cccc(OCc4ccc(C#N)s4)n3)cc2F)nc2ccc(C(=O)O)cc21`
[A] Yes

[Q] Reported Predicted Hepatic Clearance (Pred. Cl.) at or above 8 mL/min/kg? `COCCn1c(Cc2ccc(-c3csnc3OCc3ccc(C#N)cc3F)cc2F)nc2ccc(C(=O)O)cc21`
[A] Yes
